method summary: self-splicing fitness, log relative to wild type (ln ratio); higher = more splicing; Tetrahymena group I intron in knt gene, E. coli kanamycin selection, DiMSum; sequences stand for … in CUCUCU…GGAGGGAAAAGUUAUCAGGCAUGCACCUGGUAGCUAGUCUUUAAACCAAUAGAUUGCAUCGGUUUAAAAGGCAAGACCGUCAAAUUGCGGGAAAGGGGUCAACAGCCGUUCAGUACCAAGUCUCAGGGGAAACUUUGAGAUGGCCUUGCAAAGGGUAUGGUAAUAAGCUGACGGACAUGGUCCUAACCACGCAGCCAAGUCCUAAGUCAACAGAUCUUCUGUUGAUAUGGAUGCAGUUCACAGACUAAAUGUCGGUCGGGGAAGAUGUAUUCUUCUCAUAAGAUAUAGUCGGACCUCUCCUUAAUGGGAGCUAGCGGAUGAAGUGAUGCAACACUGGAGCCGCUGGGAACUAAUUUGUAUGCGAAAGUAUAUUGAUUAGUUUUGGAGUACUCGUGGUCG;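 further: selection with 25 µg/mL kanamycin versus none on LB agar overnight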
test settings: 37 °C
self-splicing fitness (ln) listing for selected sequences.
Reply with just the number.

The following sequences have reported results that may help.
GACGAGCAAUAUUACGGGAU
-1.74
ACAAAGCAAUAUUACGGGAC
-1.96
ACCCAGCAAUAUUACGAUCA
-0.56
GAGUAGCAAUAUUACGCUGG
-1.48
GAAGAGCAAUAUUACGCGAA
-2.94
CCCUAGCAAUAUUACGCGCU
-1.78
AACUAGCAAUAUUACGCCCG
-0.346

Given item AUAUAGCAAUAUUACGGUCG , the value recorded as its self-splicing fitness (ln) is -1.26

====

method summary: self-splicing fitness, log relative to wild type (ln ratio); higher = more splicing; Tetrahymena group I intron in knt gene, E. coli kanamycin selection, DiMSum; sequences stand for … in CUCUCU…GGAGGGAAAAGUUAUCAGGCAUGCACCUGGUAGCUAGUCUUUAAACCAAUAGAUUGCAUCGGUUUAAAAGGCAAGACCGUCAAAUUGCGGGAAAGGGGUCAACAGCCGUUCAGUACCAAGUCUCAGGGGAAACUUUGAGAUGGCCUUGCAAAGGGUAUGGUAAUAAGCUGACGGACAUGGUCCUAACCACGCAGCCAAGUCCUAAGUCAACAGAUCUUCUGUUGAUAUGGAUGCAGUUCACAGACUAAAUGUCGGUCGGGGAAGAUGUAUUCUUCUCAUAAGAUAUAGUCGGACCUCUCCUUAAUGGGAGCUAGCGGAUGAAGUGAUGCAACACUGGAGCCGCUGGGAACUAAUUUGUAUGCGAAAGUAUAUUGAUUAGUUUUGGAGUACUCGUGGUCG
test settings: 37 °C
Each record here notes measured self-splicing fitness (ln).
Format: numeric value only, no unit, no commentary.

For record UGGAAGCAAUAUUACGACAA the listed self-splicing fitness (ln) is -1.88

In plain terms, GUGAAGCAAUAUUACGCGUA has a documented self-splicing fitness (ln) of 0.0699

====

method summary: self-splicing fitness, log relative to wild type (ln ratio); higher = more splicing; Tetrahymena group I intron in knt gene, E. coli kanamycin selection, DiMSum; sequences stand for … in CUCUCU…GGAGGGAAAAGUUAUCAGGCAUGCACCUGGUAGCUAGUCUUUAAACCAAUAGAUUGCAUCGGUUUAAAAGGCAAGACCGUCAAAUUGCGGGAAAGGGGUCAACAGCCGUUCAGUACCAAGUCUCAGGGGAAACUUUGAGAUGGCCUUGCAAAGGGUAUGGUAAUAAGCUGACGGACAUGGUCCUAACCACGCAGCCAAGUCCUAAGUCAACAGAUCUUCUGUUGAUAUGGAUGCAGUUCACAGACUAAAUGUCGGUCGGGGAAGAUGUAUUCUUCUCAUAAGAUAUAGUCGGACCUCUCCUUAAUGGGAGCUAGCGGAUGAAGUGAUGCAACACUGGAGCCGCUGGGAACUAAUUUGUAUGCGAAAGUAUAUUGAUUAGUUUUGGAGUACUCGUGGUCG
test settings: 30 °C
Give YES when the value for self-splicing fitness (ln) is at least -2. Give NO when it is less.

Example cases with answers are listed next.
GGAUAGCAAUAUUACGCCUU
YES
GCUAAGCAAUAUUACGUGAA
YES
UUUUAGCAAUAUUACGAUAA
YES
CGAUAGCAAUAUUACGUACU
YES
UAAGAGCAAUAUUACGCAAG
NO

Can AGGAAGCAAUAUUACGACGA be said to have self-splicing fitness (ln) at or above -2? YES

# check: self-splicing fitness (ln) of GAAAAGCAAUAUUACGCCAA is greater than or equal to -2 NO

Reported self-splicing fitness (ln) at or above -2? UGUCAGCAAUAUUACGACAC NO

====

method summary: self-splicing fitness, log relative to wild type (ln ratio); higher = more splicing; Tetrahymena group I intron in knt gene, E. coli kanamycin selection, DiMSum; sequences stand for … in CUCUCU…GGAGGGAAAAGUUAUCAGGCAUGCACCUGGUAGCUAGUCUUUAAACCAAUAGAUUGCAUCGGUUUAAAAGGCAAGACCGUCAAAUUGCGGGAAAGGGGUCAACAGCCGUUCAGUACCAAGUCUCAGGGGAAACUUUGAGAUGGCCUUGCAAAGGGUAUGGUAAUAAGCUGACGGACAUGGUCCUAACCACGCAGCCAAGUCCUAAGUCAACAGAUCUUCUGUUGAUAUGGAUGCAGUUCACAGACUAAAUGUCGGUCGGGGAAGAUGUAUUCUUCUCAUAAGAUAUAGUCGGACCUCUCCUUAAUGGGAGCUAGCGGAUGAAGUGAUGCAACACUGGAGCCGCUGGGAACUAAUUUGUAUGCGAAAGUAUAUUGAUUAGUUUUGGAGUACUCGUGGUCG
test settings: 37 °C
Would you mind labelling by self-splicing fitness (ln)? At or over -0.9 is 1, under is -1.

CGUGAGCAAUAUUACGACCC
1
UUGGAGCAAUAUUACGUCGA
1
CGCAAGCAAUAUUACGGAAU
-1
CCAAAGCAAUAUUACGCGAU
-1
UGCAAGCAAUAUUACGUUUA
1

Quick check, self-splicing fitness (ln) >= -0.9? AUACAGCAAUAUUACGAUAC -1

Is it the case that AAUUAGCAAUAUUACGCUGC has self-splicing fitness (ln) reaching or exceeding -0.9? -1

====

Reported values of self-splicing fitness (ln) for individual entries
method summary: self-splicing fitness, log relative to wild type (ln ratio); higher = more splicing; Tetrahymena group I intron in knt gene, E. coli kanamycin selection, DiMSum; sequences stand for … in CUCUCU…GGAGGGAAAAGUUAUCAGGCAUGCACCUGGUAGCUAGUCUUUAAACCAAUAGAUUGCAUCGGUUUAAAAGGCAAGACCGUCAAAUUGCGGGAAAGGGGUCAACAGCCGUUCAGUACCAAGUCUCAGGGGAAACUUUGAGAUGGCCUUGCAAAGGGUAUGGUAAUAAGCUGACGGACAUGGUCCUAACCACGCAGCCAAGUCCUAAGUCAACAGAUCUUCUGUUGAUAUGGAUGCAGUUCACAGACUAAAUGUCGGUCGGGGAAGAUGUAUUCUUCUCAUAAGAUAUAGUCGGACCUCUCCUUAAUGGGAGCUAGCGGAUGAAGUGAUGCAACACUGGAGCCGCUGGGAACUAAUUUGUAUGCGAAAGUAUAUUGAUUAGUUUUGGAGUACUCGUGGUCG
test settings: 37 °C

UCAUAGCAAUAUUACGGCGU
-3.17
CGCAAGCAAUAUUACGCAGU
-2.62
AAGAAGCAAUAUUACGCAGA
-1.5
GGGGAGCAAUAUUACGUGCA
-1.08
UAGUAGCAAUAUUACGAGUG
-0.549

Recorded result, UUGAAGCAAUAUUACGACUA , self-splicing fitness (ln): 0.141

Sure, the documented self-splicing fitness (ln) for GGUCAGCAAUAUUACGCUAG is -2.91

Looking up AAUGAGCAAUAUUACGGAAA , I found its self-splicing fitness (ln) recorded as -1.86

Per the record, CUCGAGCAAUAUUACGGGAC has self-splicing fitness (ln) of -2.41

ACGAAGCAAUAUUACGCGCU yielded self-splicing fitness (ln) of 0.163

Measured self-splicing fitness (ln) of GCUUAGCAAUAUUACGUUGA : -1.15

// sample AGUCAGCAAUAUUACGCAUG , its self-splicing fitness (ln) was -1.12

Quick note, self-splicing fitness (ln) for GCCAAGCAAUAUUACGCCCG landed at -0.836

In plain terms, CCGAAGCAAUAUUACGAGCC has a documented self-splicing fitness (ln) of -2.8

self-splicing fitness (ln) recorded for this sequence, UCUGAGCAAUAUUACGGAAA , is -1.64

Kindly note the recorded self-splicing fitness (ln) for AACAAGCAAUAUUACGAGAG , which is -2.24

Value of measured self-splicing fitness (ln) for the entry CGAGAGCAAUAUUACGAAAC : -1.97

Memo: GAUCAGCAAUAUUACGCUUC , reported self-splicing fitness (ln): -2.25

Per the records, this sequence ( CCUUAGCAAUAUUACGUCCU ) has self-splicing fitness (ln) equal to -2.65

The sequence identified as GUCCAGCAAUAUUACGUAAA registered its self-splicing fitness (ln) at 0.338

Please fill in: self-splicing fitness (ln) reported for AGGCAGCAAUAUUACGGAAA = -2.14

Lookup result for CGCAAGCAAUAUUACGCGAA ; measured self-splicing fitness (ln): -1.87

Reported self-splicing fitness (ln) of ACAGAGCAAUAUUACGCAUA : -1.8

According to the records, this sequence AACCAGCAAUAUUACGUUCA displays self-splicing fitness (ln) of -0.495

sequence GGGCAGCAAUAUUACGUUGC , self-splicing fitness (ln) observed: -1.95
